Biological target: T1, huNav1.7α (human, UniProt Q15858 1-1988)
T1 construct: HEK cells expressing the α subunit without β subunits; also called huNav1.7 (alpha-subunit); Human Nav1.7α
Test: competition FACS vs EC25 of F103275B05(N93R), HEK
quantity: pIC50
// returns pIC50 (minus log10 of molar concentration), number only

Previously resolved entries follow.
binder: F010302375 (bispecific antibody, also called F0103275B05(E1D, N93R)-50GS-F0103478E09(L108Q)-FLAG3-HIS6) DVQLVESGGGLVQPGGSLRLSCAASGSIFNINSMAWYRRAPGKQRELVASSTNGGSTNYADSVKGRFTISRDNAKRVYLQMNSLTPEDTAVYYCRALLQPSIYDISRTYWGQGTLVTVSSGGGGSGGGGSGGGGSGGGGSGGGGSGGGGSGGGGSGGGGSGGGGSGGGGSEVQLVESGGGLVQAGGSLRLSCAASGRAFSTLAMGWFRQAPGKEREFVAAISRNGNNSATGDSLKGRFTISRDSTKSTVFLQMNTLKPEDTAVYYCAAISTPSASHPYVRKESYRYWGQGTQVTVSSGAADYKDHDGDYKDHDIDYKDDDDKGAAHHHHHH
quantity: pIC50
obsValue: 6.96
//
binder: F010302378 (bispecific antibody, also called F0103275B05(E1D, N93R)-50GS-F0103495F09-FLAG3-HIS6) DVQLVESGGGLVQPGGSLRLSCAASGSIFNINSMAWYRRAPGKQRELVASSTNGGSTNYADSVKGRFTISRDNAKRVYLQMNSLTPEDTAVYYCRALLQPSIYDISRTYWGQGTLVTVSSGGGGSGGGGSGGGGSGGGGSGGGGSGGGGSGGGGSGGGGSGGGGSGGGGSEVQLVESGGGLVQAGSSLSLSCAASGRALSTYAMGWFRQAPGKEREFVARISRSGITTYYTDSVKGRFTISRDRAKDTVYLQMNSLKPEDTAIYLCAADASTNPAGYYLRNRYDYWGQGTLVTVSSGAADYKDHDGDYKDHDIDYKDDDDKGAAHHHHHH
quantity: pIC50
obsValue: 7.10
//
binder: F010300191 (bispecific antibody, also called F0103275B05-50GS-F0103240B04-FLAG3-HIS6) EVQLVESGGGLVQPGGSLRLSCAASGSIFNINSMAWYRRAPGKQRELVASSTNGGSTNYADSVKGRFTISRDNAKRVYLQMNSLTPEDTAVYYCNALLQPSIYDISRTYWGQGTLVTVSSGGGGSGGGGSGGGGSGGGGSGGGGSGGGGSGGGGSGGGGSGGGGSGGGGSEVQLVESGGGLVQAGGSLRLSCAASGGTGRRYAMGWFRQAPGKEREIVAAIRWSAMTYYADDGKGRFTISRDNAKNTVYLQMNSLKPEDTAIYYCAYTWDYFKYDQVRAYRGWGQGTLVTVSSGAADYKDHDGDYKDHDIDYKDDDDKGAAHHHHHH
quantity: pIC50
obsValue: 7.17

pIC50 in this record for F010302380 (bispecific antibody, also called F0103275B05(E1D, N93R)-50GS-F0103505D08(L108Q)-FLAG3-HIS6) DVQLVESGGGLVQPGGSLRLSCAASGSIFNINSMAWYRRAPGKQRELVASSTNGGSTNYADSVKGRFTISRDNAKRVYLQMNSLTPEDTAVYYCRALLQPSIYDISRTYWGQGTLVTVSSGGGGSGGGGSGGGGSGGGGSGGGGSGGGGSGGGGSGGGGSGGGGSGGGGSEVQLVESGGGLVQAGGSLRLSCVTSGRTSDLSTMNWFRQAPGKEREFVARITRRGSTYYAESVKERFIISRDNAKNTVYLQMNSLKPEDTANYYCTAASEMGYHYRGQGTQVTVSSGAADYKDHDGDYKDHDIDYKDDDDKGAAHHHHHH : 7.17

pIC50 in this record for F010300468 (VHH, also called F0103275B05(N93R) + FLAG3-HIS6; F103275B05(N93R) + FLAG3-HIS6) VHH: EVQLVESGGGLVQPGGSLRLSCAASGSIFNINSMAWYRRAPGKQRELVASSTNGGSTNYADSVKGRFTISRDNAKRVYLQMNSLTPEDTAVYYCRALLQPSIYDISRTYWGQGTLVTVSS : 7.31

Reported pIC50 of F010302379 (bispecific antibody, also called F0103275B05(E1D, N93R)-50GS-F0103500E03(P14A, L108Q)-FLAG3-HIS6) DVQLVESGGGLVQPGGSLRLSCAASGSIFNINSMAWYRRAPGKQRELVASSTNGGSTNYADSVKGRFTISRDNAKRVYLQMNSLTPEDTAVYYCRALLQPSIYDISRTYWGQGTLVTVSSGGGGSGGGGSGGGGSGGGGSGGGGSGGGGSGGGGSGGGGSGGGGSGGGGSEVQLVESGGGLVQAGGSLRLSCAASGRTFSRYQMGWFRQAPGKEREFVAYISWSGSTRYVDSVKGRFTISRDNAKNTVYLQMNSLKPEDTAVYHCAAGTAGIISSRPETYDSWGQGTQVTVSSGAADYKDHDGDYKDHDIDYKDDDDKGAAHHHHHH : 7.07

Per the records, this binder ( F010302377 (bispecific antibody, also called F0103275B05(E1D, N93R)-50GS-F0103492E09-FLAG3-HIS6) DVQLVESGGGLVQPGGSLRLSCAASGSIFNINSMAWYRRAPGKQRELVASSTNGGSTNYADSVKGRFTISRDNAKRVYLQMNSLTPEDTAVYYCRALLQPSIYDISRTYWGQGTLVTVSSGGGGSGGGGSGGGGSGGGGSGGGGSGGGGSGGGGSGGGGSGGGGSGGGGSEVQLVESGGGLVQAGGSLRLSCAASKSILSFAYMRWYRQAPGKQREFVASIAIGGATSYTDSVKGRFTISRDNAKNTVYLQMNSLKPEDTAVYYCSAPAGQYRGQGTLVTVSSGAADYKDHDGDYKDHDIDYKDDDDKGAAHHHHHH ) has pIC50 equal to 7.07
